The entries below are paired with their reported log10(%HIA +10).
test method notes: Drug absorption in human assessed as human intestinal absorption rate
Type: ADME, tissue-based, Intestine
Answer with the value's number alone.

Query block: Tell me its log10(%HIA +10) given COc1ccc2cc([C@H](C)C(=O)O)ccc2c1 [NAPROXEN] as the entry.
Result block: 2.037

Query block: Indicate the recorded log10(%HIA +10) value for this compound: C[C@@H](O)[C@H]1C(=O)N2C(C(=O)O)=C(S[C@@H]3CN[C@H](C(=O)N(C)C)C3)[C@H](C)[C@H]12 [MEROPENEM]
Result block: 1

Query block: Identify log10(%HIA +10) associated with the compound CCOC(=O)C(C)(C)Oc1ccc(Cl)cc1 [CLOFIBRATE]
Result block: 1.987

Query block: # return recorded log10(%HIA +10) for input CC(C)NCC(O)COc1ccc(CC(N)=O)cc1 (stereo not given) [ATENOLOL]
Result block: 1.785

Query block: Name the recorded log10(%HIA +10) of the item CCCc1c2oc(C(=O)O)cc(=O)c2cc2c(=O)cc(C(=O)O)n(CC)c12 [NEDOCROMIL] in your answer.
Result block: 1.114

###

test method notes: Drug absorption in human assessed as human intestinal absorption rate
Type: ADME, tissue-based, Intestine
observed property: log10(%HIA +10)
// no unit string in output, number only

Examples with their reported log10(%HIA +10) follow.
{"columns": ["molecule", "log10(%HIA +10)"],
 "data": [
  ["CC(C)NCC(O)COc1ccc(CCOCC2CC2)cc1 (stereo unspecified) [BETAXOLOL]", 2],
  ["CN(Cc1cc(Br)cc(Br)c1N)C1CCCCC1 [BROMHEXINE]", 1.903],
  ["CO[C@H]1C[C@H](O[C@H]2CC[C@]3(C=O)[C@H]4CC[C@]5(C)[C@@H](C6=CC(=O)OC6)CC[C@]5(O)[C@@H]4CC[C@]3(O)C2)O[C@H](C)[C@H]1O [CYMARIN]", 1.756],
  ["OCCOCCN1CCN(C2=Nc3ccccc3Sc3ccccc32)CC1 [QUETIAPINE]", 1.919],
  ["O=C(N[C@H](CO)[C@H](O)c1ccc([N+](=O)[O-])cc1)C(Cl)Cl [CHLORAMPHENICOL]", 2],
  ["COc1cccc2c1C(=O)c1c(O)c3c(c(O)c1C2=O)C[C@@](O)(C(=O)CO)C[C@@H]3O[C@H]1C[C@H](N)[C@H](O)[C@H](C)O1 [DOXORUBICIN]", 1.176],
  ["CCOC(=O)[C@H](CCc1ccccc1)N[C@@H](C)C(=O)N1Cc2cc(OC)c(OC)cc2C[C@H]1C(=O)O [MOEXIPRIL]", 1.176],
  ["CCOC(=O)[C@H](CCc1ccccc1)N[C@H]1CCc2ccccc2N(CC(=O)O)C1=O [BENAZEPRIL]", 1.672]
]}

Query block: // fetch log10(%HIA +10) given entry OC[C@H]1O[C@H](OC[C@H]2O[C@H](O[C@]3(CO)O[C@H](CO)[C@@H](O)[C@@H]3O)[C@H](O)[C@@H](O)[C@@H]2O)[C@H](O)[C@@H](O)[C@H]1O [RAFFINOSE]
Result block: 1.013

Query block: Return log10(%HIA +10) (reported value) for this molecule: Nc1nc(O)c2ncn(COC(CO)CO)c2n1 [GANCICLOVIR]
Result block: 1.134

Query block: # return recorded log10(%HIA +10) for input C[C@@H]1O[C@@H]1P(=O)(O)O [FOSFOMYCIN]
Result block: 1.613

Query block: Fill in reported log10(%HIA +10) for this entry: CN(N=O)C(=O)N[C@@H](C=O)[C@@H](O)[C@H](O)[C@H](O)CO [STREPTOZOCIN]
Result block: 1

Query block: Tell me its log10(%HIA +10) given CN(C)CCc1c[nH]c2ccc(CS(=O)(=O)N3CCCC3)cc12 [ALMOTRIPTAN] as the entry.
Result block: 1.929

Query block: For the molecule CC1(C)S[C@@H]2[C@H](NC(=O)[C@H](NC(=O)N3CCN(S(C)(=O)=O)C3=O)c3ccccc3)C(=O)N2[C@H]1C(=O)O [MEZLOCILLIN] , give its measured log10(%HIA +10) value.
Result block: 1

Query block: Supply measured log10(%HIA +10) of C[C@@H](O)[C@H]1C(=O)N2C(C(=O)O)=C(SCCN=CN)C[C@H]12 [IMIPENEM ANHYDROUS] in your reply.
Result block: 1.176

Query block: Fill in reported log10(%HIA +10) for this entry: CCCC(=O)Nc1ccc(OCC(O)CNC(C)C)c(C(C)=O)c1 (stereo unspecified) [ACEBUTOLOL]
Result block: 1.999

###

test method notes: Drug absorption in human assessed as human intestinal absorption rate
Assay type: ADME, tissue-based, Intestine
observed property: log10(%HIA +10)
Answer with a bare number; do not write a unit.

Below, each entry is followed by its recorded log10(%HIA +10) result.
{"columns": ["compound", "log10(%HIA +10)"],
 "data": [
  ["Cc1ccccc1N1C(=O)c2cc(S(N)(=O)=O)c(Cl)cc2NC1C (stereo not drawn) [METOLAZONE]", 1.863],
  ["O=P(O)(O)C(O)(Cc1cccnc1)P(=O)(O)O [RISEDRONIC ACID]", 1.041],
  ["O=c1[nH]c(=O)n([C@H]2C[C@H](O)[C@@H](CO)O2)cc1/C=C/Br [BRIVUDINE]", 1.58],
  ["O=CN(O)CCCP(=O)(O)O [FOSMIDOMYCIN]", 1.602],
  ["CC[C@H]1OC(=O)[C@H](C)[C@@H](O[C@H]2C[C@@](C)(OC)[C@@H](O)[C@H](C)O2)[C@H](C)[C@@H](O[C@@H]2O[C@H](C)C[C@H](N(C)C)[C@H]2O)[C@](C)(O)C[C@@H](C)CN(C)[C@H](C)[C@@H](O)[C@]1(C)O [AZITHROMYCIN]", 1.663],
  ["C[C@H](CS)C(=O)N1CCC[C@H]1C(=O)O [CAPTOPRIL]", 1.892],
  ["CC(C)(C)NC[C@H](O)COc1nsnc1N1CCOCC1 [TIMOLOL]", 2.021],
  ["C[C@](N)(Cc1ccc(O)c(O)c1)C(=O)O [METHYLDOPA]", 1.708],
  ["Nc1ccn([C@@H]2CS[C@H](CO)O2)c(=O)n1 [LAMIVUDINE]", 1.987],
  ["O=C(O)P(=O)(O)O [FOSCARNET]", 1.431]
]}

Query block: Respond only with log10(%HIA +10) recorded for CC(C)Cc1ccc(C(C)C(=O)O)cc1 (stereo not drawn) [IBUPROFEN]
Result block: 2.041

Query block: Please give the documented log10(%HIA +10) of NC[C@@H]1O[C@H](O[C@H]2[C@@H](O)[C@H](O[C@@H]3[C@@H](O)[C@H](N)C[C@H](N)[C@H]3O[C@H]3O[C@H](CN)[C@@H](O)[C@H](O)[C@H]3N)O[C@@H]2CO)[C@H](N)[C@@H](O)[C@@H]1O [FRAMYCETIN]
Result block: 1.041

Query block: Answer with reported log10(%HIA +10) of CC(=O)Oc1cc(C(C)C)c(OCCN(C)C)cc1C [MOXISYLYTE]
Result block: 1.903

Query block: Look up and state reported log10(%HIA +10) for Cc1c(N(C)C)c(=O)n(-c2ccccc2)n1C [AMINOPYRINE]
Result block: 2.041

Query block: Return log10(%HIA +10) for the following compound: N=C(N)NC(=O)c1nc(Cl)c(N)nc1N [AMILORIDE]
Result block: 1.778

Query block: Using known records, supply log10(%HIA +10) for CC(NC(C)(C)C)C(=O)c1cccc(Cl)c1 (stereo not drawn) [BUPROPION]
Result block: 1.987

Query block: Query log10(%HIA +10) for O=C(O)c1cc(/N=N/c2ccc(O)c(C(=O)O)c2)ccc1O [OLSALAZINE]
Result block: 1.09

Query block: // Input: CCOC(=O)C1=C(C)NC(C)=C(C(=O)OC)C1c1cccc([N+](=O)[O-])c1 (stereo not drawn) [NITRENDIPINE] . Output its log10(%HIA +10) only.
Result block: 1.991

###

test method notes: Drug absorption in human assessed as human intestinal absorption rate
Assay type: ADME, tissue-based, Intestine
observed property: log10(%HIA +10)
Just the number, please, no unit attached.

Guide cases for log10(%HIA +10), answers given:
{"columns": ["compound", "log10(%HIA +10)"],
 "data": [
  ["C[C@@H]1O[C@@H](O[C@H]2C[C@@H](O)[C@]3(CO)[C@H]4[C@H](O)C[C@]5(C)[C@@H](C6=CC(=O)OC6)CC[C@]5(O)[C@@H]4CC[C@]3(O)C2)[C@H](O)[C@H](O)[C@H]1O [OUABAIN]", 1.057],
  ["CCc1oc2ccccc2c1C(=O)c1cc(Br)c(O)c(Br)c1 [BENZBROMARONE]", 1.919],
  ["CC(C)C[C@H]1C(=O)N2CCC[C@H]2[C@]2(O)O[C@](NC(=O)[C@@H]3C=C4c5cccc6[nH]c(Br)c(c56)C[C@H]4N(C)C3)(C(C)C)C(=O)N12 [BROMOCRIPTINE]", 1.58],
  ["Nc1ccn(C[C@@H](CO)OCP(=O)(O)O)c(=O)n1.O.O [CIDOFOVIR]", 1.114]
]}

--- query ---
Query block: Give a short answer stating reported log10(%HIA +10) for C[C@@H]1[C@H](O)[C@@H](C)/C=C/C=C/C=C/C=C/C=C/C=C/C=C/[C@H](O[C@@H]2O[C@H](C)[C@@H](O)[C@H](N)[C@@H]2O)C[C@@H]2O[C@](O)(C[C@@H](O)C[C@@H](O)[C@H](O)CC[C@@H](O)C[C@@H](O)CC(=O)O[C@H]1C)C[C@H](O)[C@H]2C(=O)O [AMPHOTERICIN B] .
Result block: 1.176
